TESTED ON: T1, full-length human Tau (flTau) (human, UniProt P10636-8 1-441)
T1 construct: range 1-441; bought (SignalChem); also called human Tau-441
T1 sequence (P10636 other isoform, or with tags, fused parts or gaps limits assumed): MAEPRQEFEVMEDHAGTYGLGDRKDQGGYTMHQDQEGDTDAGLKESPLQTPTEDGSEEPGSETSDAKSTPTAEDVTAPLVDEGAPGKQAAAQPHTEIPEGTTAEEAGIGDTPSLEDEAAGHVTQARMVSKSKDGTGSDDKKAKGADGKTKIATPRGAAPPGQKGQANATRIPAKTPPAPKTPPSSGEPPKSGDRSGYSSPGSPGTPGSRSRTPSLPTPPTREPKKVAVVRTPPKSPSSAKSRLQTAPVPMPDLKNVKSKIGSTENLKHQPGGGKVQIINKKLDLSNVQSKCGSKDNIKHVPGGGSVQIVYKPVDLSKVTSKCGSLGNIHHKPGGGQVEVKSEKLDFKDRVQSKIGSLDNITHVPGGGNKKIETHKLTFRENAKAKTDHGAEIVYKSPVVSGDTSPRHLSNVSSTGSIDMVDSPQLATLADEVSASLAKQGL
PROTOCOL NOTES: SPR, hybridoma Ab on anti-IgG chip, flTau analyte
Record form. Attribute: pKd. Fill in for each entry.
FYI, pKd means -log10 of a concentration in mol per litre.

Ask: Using the record for 24A11-D5 (antibody, V domains shown, hybridoma supernatant) VH: EVQLQQSGPELVKPGASVKMSCKASGYTFTDYYMKWVKQSHGKSLEWIGDLNPKNGGIIYNQKFKGQATLTVDKSSSTAYMQLNSLTSEDSAVFYCARSGGYGDSFAYWGQGTLVTVSA VL: DVLMTQTPLSLPVSLGDQASISCRSSQNIVHSNGNTYLEWYLQKPGQSPKLLIYKVSNRFSGVPDRFSGSGSGTDFTLKISRVEAEDLGIYFCFQGSHVPPTFGGGTKLEIK , report its pKd.
Result: 8.70

Ask: Using the record for 211G6-B6 (antibody, V domains shown) VH: QVQLKESGPGLVAPSQSLSITCTVSGFSLTSYAISWVRQPPGKGLEWLGVIWTGGGTNYNSALKSRLSITKDNSKNQVFFRMNSLQTDDTARYYCARKKLYDYDGGYFFDYWGQGTTLTVSS VL: DIVMSQSPSSLAMSVGEKVTMSCKSNQSLLYSSNQKNYLAWYQQKPGQSPKLLIYWASTRESGVPDRFTGSGSGTDFTLTISSVKAEDLAVYYCHQYYSYPWTFGGGTKLEIK , report its pKd.
Result: 8.33

Ask: Using the record for 89F4-A1 (antibody, mouse IgG2a, V domains shown) VH: EVQLVESGGGLVQPKGSLKLSCAASGFTFNTYAMNWVRQAPGKGLEWVARIRSKSNNYAAYFADSVKDRFTISRDDSQTMLYLQMNNLKSEDTAMYYCVSGGNYVPFAYWGQGTLVTVSA VL: NIMMTQSPSSLAVSAGEKVTMSCKSSQSVFYSSEQRNYLAWYQQKPGQSPKLLISWASTRESGVPDRFTGSGSGTDFTLTISSVQGEDLAVYYCHQYLSSFTFGSGTKLEIK , report its pKd.
Result: 8.54

Ask: Using the record for 123E9-A1 (antibody, mouse IgG2a, V domains shown) VH: EVQLQQSGPELVKPGASVKMSCKASGYTFTDYYMKWVKQSHGKSLEWIGDIDPNNGGTSYNQKFKGKATLTVDKSSSTAYMQLNSLTSEDSAVYYCARSAGFGDSFSFWGLGTLVTVSA VL: DVLMTQTPLSLPVSLGDQASISCRSSQSIVHSNGNTYLEWYLQKPGQSPKLLIYKVSNRFSGVPDRFSGSGSGTDFTLKISRVEAEDLGFYYCFQGSHVPPTFGGGTKLEIK , report its pKd.
Result: 8.74

Ask: Using the record for 3A4-H4 (antibody, mouse IgG2a, V domains shown) VH: EVQLVESGGDLVKPGGSLKLSCAASGFTFSSYGMSWVRQTPDKRLEWVATISSGGTYTYYPDSVKGRFTISRDNAKNTLYLQMSSLKSEDTAMYFCATSYDGAMDYWGQGTSVTVSS VL: DVLMTQTPLSLPVSLGDQASISCRSSQNIVHSNGNTYLEWYLQKPGQSPKLLIYKVSNRFSGVPDRFSGSGSGTDFTLKISRVEAEDLGVYYCFQGTLVPWTFGGGTKLEIK , report its pKd.
Result: 8.11

Ask: Using the record for 126F11-G11 (antibody, mouse IgG2a, V domains shown) VH: EVQLQQSGAELVRPGASVKLSCTASGFNIKDDYMHWVKQRPEQGLEWIGWIDPENGDTEYASKFQGKATITTDTSSNTAYLQLSSLTSEDTAVYYCLDFAYGYWGQGTTLTVSS VL: DVLMTQTPLSLPVSLGDQASISCRSSQSIVHSNGNTYLEWYLQKPGQSPKLLIYKVSNRFSGVPDRFSGSGSGTDFTLKISRVEAEDLGVYYCFQGSHVPPAFGGGTKLEIK , report its pKd.
Result: 8.38

Ask: Using the record for 64B9-F12 (antibody, V domains shown, hybridoma supernatant) VH: QIQLVQSGPELRKPGETVKISCKASGYTFTTYGMSWVKQAPGEGLKWMGWINTYSGMPTYADDFKGRFAFSLETSARTAYLQINNLKNEDTATYFCARSELSWFAYWGQGTLVTVSA VL: DIVMTQSPATLSVTPGDRVSLSCRASQSISDYLHWYQQKSHESPRLLIKYASQSISGIPSRFSGSGSGSDFTLSINSVEPEDVGVYYCQNGHNFPYTFGGGTKLEIK , report its pKd.
Result: 8.70

Ask: Using the record for 61E7-C4 (antibody, V domains shown, hybridoma supernatant) VH: EVQLVESGGDLVKPGGSLKVSCVASGFTFRSYGMSWVRQTPDKRLDWVATISSGGNYTYYPDSVKGRFTISRDNAKNTLYLQMSSLKSEDTAMYYCASSYSGAMDYWGQGTSVTVSS VL: DTVMTQSPLSLPVSLGDQASISCRSSQSIVHSNGNTYLEWYLQKPGQSPKLLIYTVSNRFSGVPDRFSGSGSGTDFTLKISRVEAEDLGVYYCFQGSHVPWTFGGGTKLEIK , report its pKd.
Result: 8.48

Ask: Using the record for 65B1-A2 (antibody, V domains shown, hybridoma supernatant) VH: QVQLKESGPGLVAPSQSLSITCTISGFSLTTYGVHWVRQPPGKGLEWLVVIWSDGSTTYNSALKSRLSISKDNSKSQVFLKMNSLQTDDTAMYYCARQGGFITTAYYAMDYWGQGTSVTVSS VL: DIVMSQSPSSLAVSAGEKVTMSCKSSQSLLNSRTRKNYLAWYQQKPGQSPKLLIYWASTRESGVPDRFTGSGSGTDFTLTISSVQAEDLAVYYCKQSYNLYTFGGGTKLEIK , report its pKd.
Result: 9.10

Ask: Using the record for 77D1-D2 (antibody, V domains shown, hybridoma supernatant) VH: EVQLQQSVAELVRPGASVTLSCTSSGFNIKNTYMHWVIQRPEQGLEWIGKIDPAIVNTKYAPKFQGKATITADTSSNTAYLQLSSLTSEDTGIYYCAEGALLYWGLGTSVTVSS VL: DVVMTQTPLSLSVTIGQPASISCKSSQSLLHSNGKTYLNWLQQRPGQAPKLLMYLVSKVDPGIPDRFSGSGSETDFTLKISRVEAEDLGVYYCFQGTYYPHTFGGGTKLEIK , report its pKd.
Result: 9.30
